# procedure.details: gradient 5% acetonitrile 3 min, to 50% in 2 min, to 85% in 15 min, held 3 min, 100 µL/min
# cond: column: Zorbax Extend-C18 2.1 x 50 mm; eluents: water / acetonitrile, 0.1% formic acid
Outcome: true (1) for RP-LC retention time of at least 800 s; false (0) for anything lower.

>  <compound>
O=C(Nc1cccc(OCc2nnc(-c3ccccc3)o2)c1)c1ccoc1

>  <class.label>
true (1)

$$$$
>  <compound>
O=C(Cc1nc(-c2ccccn2)n[nH]1)Nc1cc(F)ccc1F

>  <class.label>
false (0)

$$$$
>  <compound>
O=C(Cc1cccs1)N1CCCC(c2nncn2-c2ccccc2)C1 (stereo unspecified)

>  <class.label>
false (0)

$$$$
>  <compound>
CC(C)Cn1c(=O)c(N2CCN(C(=O)c3ccc(Cl)cc3)CC2)nc2ccncc21

>  <class.label>
false (0)

$$$$
>  <compound>
CCn1c(C(=O)Nc2cc(Cl)ccc2C)cc2sc(Cl)cc21

>  <class.label>
true (1)

$$$$
>  <compound>
Cc1cc(-c2csc(S(=O)(=O)N3CCN(CCOc4ccc(Cl)cc4)CC3)c2)on1

>  <class.label>
false (0)

$$$$
>  <compound>
Cc1cc(C(=O)Nc2cccc(F)c2)nc2ccnn12

>  <class.label>
true (1)

$$$$
>  <compound>
COCC(C)(O)CNC(=O)c1ccco1 (stereo unspecified)

>  <class.label>
false (0)

$$$$
>  <compound>
COc1ccc(C(=O)c2cccc(N)c2)cc1OC

>  <class.label>
false (0)

$$$$
>  <compound>
Cc1ccn2c(Nc3ccccc3C)c(-c3ccc(N4CCOCC4)cc3)nc2c1

>  <class.label>
false (0)

$$$$
>  <compound>
Cc1cc(C)c(C)c(S(=O)(=O)N2CCN(c3nc4ccncc4n(C)c3=O)CC2)c1C

>  <class.label>
false (0)

$$$$
>  <compound>
Cn1nc(-c2nc(C3CC3)no2)c2c1CCN(C(=O)Nc1ccccc1Cl)C2

>  <class.label>
true (1)

$$$$
>  <compound>
CCCNC(=O)Nc1ccc(NC(=O)N2CCC(C(=O)NCC)CC2)cc1

>  <class.label>
false (0)

$$$$
>  <compound>
c1ccc(-c2cc3ccccc3[nH]2)cc1

>  <class.label>
true (1)

$$$$
>  <compound>
Cc1ccc(Nc2c(-c3ccc([N+](=O)[O-])cc3)nc3ccc(Cl)cn23)cc1

>  <class.label>
true (1)

$$$$
>  <compound>
CC(=O)Cc1nsc(NC(=O)c2ccc(C(C)(C)C)cc2)n1

>  <class.label>
true (1)

$$$$
>  <compound>
CCc1ccc(S(=O)(=O)N2CCC3(CC2)NCCN=C3NCc2cccc(OC)c2)cc1

>  <class.label>
false (0)

$$$$
